Data provenance: patent US4424218A

system: mice; test: Acute toxicity; type: in vivo; details: orally
Structures can show the parent of a compound that is named as a salt.
Property label: DL0 (lethal dose LD0, maximum dose which did not cause any mortality after 8 days)

>>> result("C[C@H](N)C(=O)N[C@@H]1CC[C@@]2(C)[C@@H](CC[C@@H]3[C@@H]2CC[C@]2(C)[C@@H]([C@H](C)O)CC[C@@H]32)C1")
"200 mg/kg"
>>> result("C[C@H](O)[C@H]1CC[C@H]2[C@@H]3CC[C@H]4C[C@H](NC(=O)[C@@H](N)CCC(=O)O)CC[C@]4(C)[C@H]3CC[C@]12C")
"≥ 400 mg/kg"
>>> result("C[C@H](O)[C@@]1(O)CC[C@H]2[C@@H]3CC[C@H]4C[C@H](NC(=O)CN)CC[C@]4(C)[C@H]3CC[C@@]21C [Example 10, hydrochloride]")
"≥ 600 mg/kg"
>>> result("C[C@H](O)[C@H]1CC[C@H]2[C@@H]3CC[C@H]4C[C@H](N(C)C(=O)CN)CC[C@]4(C)[C@H]3CC[C@]12C.Cl")
"≥ 200 mg/kg"
>>> result("C[C@H](O)[C@H]1CC[C@H]2[C@@H]3CC[C@H]4C[C@H](NC(=O)[C@@H](N)Cc5ccccc5)CC[C@]4(C)[C@H]3CC[C@]12C")
"≥ 400 mg/kg"

###

Catalogue of compounds with associated DL0 (lethal dose LD0, maximum dose which did not cause any mortality after 8 days)
system: mice; assay: Acute toxicity; assay type: in vivo; conditions: orally
Structures can show the parent of a compound that is named as a salt.
Property label: DL0 (lethal dose LD0, maximum dose which did not cause any mortality after 8 days)

>>> result("C[C@H](O)[C@H]1CC[C@H]2[C@@H]3CC[C@H]4C[C@H](NC(=O)CNC(=O)CN)CC[C@]4(C)[C@H]3CC[C@]12C [Example 8]")
"≥ 400 mg/kg"
>>> result("C[C@H](O)[C@H]1CC[C@H]2[C@@H]3CC[C@H]4C[C@H](NC(=O)[C@@H](N)CO)CC[C@]4(C)[C@H]3CC[C@]12C [Example 4]")
"≥ 400 mg/kg"
>>> result("C[C@H](O)[C@H]1CC[C@H]2[C@@H]3CC[C@H]4C[C@H](NC(=O)[C@@H]5CCCN5)CC[C@]4(C)[C@H]3CC[C@]12C [Example 7]")
"≥ 800 mg/kg"
>>> result("C[C@H](O)[C@H]1CC[C@H]2[C@@H]3CC[C@H]4C[C@H](NC(=O)[C@@H](N)Cc5c[nH]c6ccccc56)CC[C@]4(C)[C@H]3CC[C@]12C [Example 6]")
"≥ 1000 mg/kg"
>>> result("C[C@H](O)[C@H]1CC[C@H]2[C@@H]3CC[C@H]4C[C@H](NC(=O)CN)CC[C@@H]4[C@H]3CC[C@]12C [Example 11, hydrochloride]")
"≥ 400 mg/kg"
>>> result("CCOC(=O)N[C@@H]1CC[C@@]2(C)[C@@H](CC[C@@H]3[C@@H]2CC[C@]2(C)[C@@H]([C@H](C)O)CC[C@@H]32)C1 [Example 14]")
"≥ 400 mg/kg"
